Origin of measurements: paper PMC10351190

- testSystem: α-glucosidase
- methodNotes: pNPG hydrolysis, absorbance […] nm
- runConditions: pNPG substrate ([…] stock), pH […] °C, […] phosphate
observationType: IC50

# lookup: `O=C(O)c1c(O)cc(O)cc1C[C@H](O)c1ccccc1` on α-glucosidase, IC50 = > 800 µM

# lookup: `O=c1cc(-c2ccc(O)cc2)oc2cc(O)cc(O)c12` on α-glucosidase, IC50 = > 800 µM

# lookup: COC(=O)c1cc(O)c(O)c(O)c1 [compound 6, methyl gallate] on α-glucosidase, IC50 = > 800 µM

# lookup: `COc1cc2c(ccc3c(-c4c(O)cc(OC)c5c4ccc4cc(O)c(OC)cc45)c(O)cc(OC)c32)cc1O` on α-glucosidase, IC50 = > 800 µM

# lookup: `COc1cc2c(ccc3cc(O)cc(OC)c32)cc1O` on α-glucosidase, IC50 = 31.4 µM

# lookup: `COc1cc(C(=O)O)ccc1O` on α-glucosidase, IC50 = > 800 µM

# lookup: `O=C(/C=C/C=C/c1ccc(O)cc1)CCc1ccc(O)cc1` on α-glucosidase, IC50 = 1.6 µM

# lookup: COc1c(O)cc(C[C@H](O)c2ccccc2)c(C(=O)O)c1O [compound 1, diosniposide E] on α-glucosidase, IC50 = > 800 µM

# lookup: `O=C(O)c1cc(O)c(O)c(O)c1` on α-glucosidase, IC50 = > 800 µM
